B1: C1orf137 (parent)
chain: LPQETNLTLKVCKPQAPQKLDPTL

# Variants of: B1
# Test: protein stability index of a GFP-peptide fusion (GPS, HEK-293T) (PSI 1-6); higher = more stable;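 further: lentivirally expressed fusions sorted by FACS into six bins by GFP to DsRed ratio, PSI derived from sequencing read proportions per bin multiplied by bin number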
# Test Context: c terminus: a fixed tail appended
# reported protein stability index; entries follow

>  <Variant Description>
T8N

>  <protein stability index>
4.11

$$$$
>  <Variant Description>
L1I

>  <protein stability index>
3.97

$$$$
>  <Variant Description>
K19D

>  <protein stability index>
3.92

$$$$
>  <Variant Description>
T8L

>  <protein stability index>
3.95

$$$$

Source: the supplement of paper PMC10567573
